- ASSAYED SYSTEM: His-tagged canine IL-31 (interleukin 31) recombinant protein (canine)
- TEST PROTOCOL: BLI (Gator), biotinylated antibody on streptavidin probe, canine IL-31 as analyte
RESULT TYPE: koff (s⁻¹)
API: value field is a number in s⁻¹; no unit string.

{"columns": ["BINDER", "koff, s⁻¹"],
 "data": [
  ["6465-H1K2-canIgGB (antibody, V domains shown) VH: EVQLVESGGDLVKPGGSLRLSCVASGYSFTNYYLYWVRQAPGKGLEWVGELNPRNGGTNLNAKFKTRFTISVDKAKNMAYLQMNSLRAEDTAVYYCTRGGTTVVVRDVMDFWGQGTLVTVSS VL: DIVLTQTPLSLSVSPGEPASISCRASESVDSYGNSFMHWYRQKPGQSPQLLIYRASNLESGVPDRFSGSGSRTDFTLRISRVEADDAGVYYCQQSNEDPYTFGQGTKLEIKR", 0.00088],
  ["B2-H3K2-canIgGB (antibody, V domains shown) VH: EVQLVESGGDLVKPGGSLRLSCVASGFTFSDAWMDWVRQAPGKGLQWVAEIRSRAESHATYYAESVKGRFTISRDDAKNTVYLQMNSLRAEDTAVYYCTPASTMITTGWFAYWGQGTLVTVSS VL: DIVMTQTPLSLSVSPGETASISCRASQNISVYLHWYRQKPGQSPQVLIKYVSQSISGVPDRFSGSGSGSDFTLRISRVEADDTGVYYCQNGHSFPYTFGQGTKLEIKR", 0.000188]
]}

Please look at the following binder next.
Any idea what its koff is? The binder is B2-H2K2-canIgGB (antibody, V domains shown) VH: EVQLVESGGDLVKPGGSLRLSCVASGFTFSDAWMDWVRQAPGKGLEWVAEIRSRAESHATYYAESVKGRFTISRDDAKNMVYLQMNSLRAEDTAVYYCTPASTMITTGWFAYWGQGTLVTVSS VL: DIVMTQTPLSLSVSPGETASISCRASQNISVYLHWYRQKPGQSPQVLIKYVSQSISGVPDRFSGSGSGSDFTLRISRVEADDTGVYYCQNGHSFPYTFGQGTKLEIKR 0.000882
